Source: PubChem BioAssay AID463173

Tested on: DeltatarO mutant
Assay: S. aureus survival, RN4220 and DeltatarO strains – OD600, teichoic acid synthesis inhibitors, primary screen (AID 463173)
Conditions: S. aureus RN4220 wild type/DeltatarO growth, OD600, 18 h, screened at 18.75 µg/mL (by protocol)
About 4,300 (8.3%) of roughly 52,000 compounds were called active. No stated cut-off is given here; in the data, active means survival mostly below about 52% (no sharp cut-off); inactive means mostly above about 56%. The sample as a whole holds a higher share of actives than the screen did.
Respond with a class label; see active, inactive

MOL SMILES: O=C(NCCn1cc(SCc2ccccc2)c2ccccc21)c1cccs1
LABEL VALUE: active
//
MOL SMILES: O=C(CSc1cn(CCNC(=O)c2c(F)cccc2F)c2ccccc12)Nc1ccc(F)cc1
LABEL VALUE: inactive
//
MOL SMILES: O=C(NCCn1cc(SCc2ccc(F)cc2)c2ccccc21)c1cccs1
LABEL VALUE: inactive

Please examine the following record next.
Query block: Name the outcome recorded for "Cc1cc(Nc2ccc(Br)cc2)n2nc(-c3ccccc3C)nc2n1" in the assay.
Result block: active
